ASSAY_NOTES: Pharmacokinetics assay of 26a in ob/ob mice (plasma and intestinal tissue)
Format: in vivo, mouse
CONDITION_DESCRIPTION: male, mouse, intestinal tissue, po, 100 mg/kg p.o. single dose, read-out: level in intestinal tissue at 24 h

{"columns": ["COMPOUND", "concentration at 24 h"],
 "data": [
  ["CN(CC[N+](C)(C)C)C(=O)CCc1cc(Cl)c(Oc2ccsc2C(=O)N2CCN(C3CC3)c3ccccc32)cc1Cl [Compound 26a]", "> 800 ng/mL"]
]}

----------
ASSAY_NOTES: Caco-2 permeability determination
Type: in vitro ADME
CONDITION_DESCRIPTION: human; Caco-2, apical to basolateral side
# Papp A→B at 95 min values compiled below

{"columns": ["COMPOUND", "Papp A→B at 95 min / ×10⁻⁶ cm/s"],
 "data": [
  ["CN(CC[N+](C)(C)C)C(=O)CCc1cc(Cl)c(Oc2ccsc2C(=O)N2CCN(C3CC3)c3ccccc32)cc1Cl [Compound 26a]", 0.06],
  ["O=C(c1sccc1Oc1cc(Cl)ccc1Cl)N1CCN(C2CC2)c2ccccc21", 0.55]
]}
